TEST_SYSTEM: MNK2a (Homo sapiens (Human), UniProt Q9HBH9)
Sequence (Q9HBH9 whole entry): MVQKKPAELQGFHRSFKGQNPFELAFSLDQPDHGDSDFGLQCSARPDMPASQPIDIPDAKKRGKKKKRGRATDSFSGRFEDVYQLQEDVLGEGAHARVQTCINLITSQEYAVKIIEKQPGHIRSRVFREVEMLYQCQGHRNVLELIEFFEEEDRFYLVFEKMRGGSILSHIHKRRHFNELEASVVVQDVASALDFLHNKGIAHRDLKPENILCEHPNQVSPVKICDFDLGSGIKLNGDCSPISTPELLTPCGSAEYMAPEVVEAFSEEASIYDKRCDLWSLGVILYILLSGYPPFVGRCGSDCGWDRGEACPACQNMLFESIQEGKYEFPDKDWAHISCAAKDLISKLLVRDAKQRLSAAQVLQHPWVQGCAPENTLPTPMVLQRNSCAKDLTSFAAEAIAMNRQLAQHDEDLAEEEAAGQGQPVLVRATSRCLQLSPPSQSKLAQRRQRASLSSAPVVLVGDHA
EXPERIMENTAL_PROTOCOL: MNK2a in vitro kinase assay (Assay 2), ADP-Glo
Type: biochemical
CONDITION_DESCRIPTION: assay 2; read-out: MNK2 IC50
REPORTED_METRIC: IC50 (nM)
Quick note: give the figure in nM, leave out the unit.

Q: Which IC50 value is on record for Cc1cc(N=S(C)(C)=O)cc2ncnc(Nc3ccc(F)cc3O[C@H]3CN(C)C[C@@H]3O)c12 ?
Ans: 33

Q: // next record Cc1cc(N=S(C)(C)=O)cc2ncnc(Nc3cccnc3O[C@@H]3COC[C@@H]3O)c12 (racemic)
Ans: 17

Q: // next record COc1cc(N=S2(=O)CCC2)cc2ncnc(Nc3cccnc3O[C@H]3COC[C@H]3O)c12 (racemic)
Ans: 11

Q: // next record O=S1(=Nc2cc(Cl)c3c(Nc4ccc(F)cc4O[C@H]4COC[C@H]4O)ncnc3c2)CCCC1 (racemic) [Example 1.5]
Ans: 2
